Provenance of the data: ChEMBL document CHEMBL4602735

# test method notes: Tmax in C57BL/6 mouse liver at 200 mg/kg, po measured from 5 mins to 24 hrs by HPLC analysis
# Assay type: ADME, organism-based
measured property: Tmax (h)
Provide only the numeric value, understood in h.

Given the compound `Cc1cc(Nc2nn(C3CC3)c3cnc(S(=O)(=O)N4CCC(OC(=O)CN(C)C)CC4)cc23)ccc1F.O=C(O)CC(O)(CC(=O)O)C(=O)O` , what is its reported Tmax? 4

* * *

# test method notes: Cytotoxicity in human HepG2 cells assessed as induction of cell killing
measured property: CC50 (µM)
Provide only the numeric value, understood in µM.

Given the molecule `CC[C@@H](C)NS(=O)(=O)c1ccc(F)c(C(=O)Nc2ccc(F)c(F)c2)c1` , what is its reported CC50? 39.9

* * *

# System: Hepatitis B virus
# test method notes: Antiviral activity against HBV infected in […] cells
# Type: functional, organism-based
measured property: EC50 (nM)
Provide only the numeric value, understood in nM.

Given the compound CCC(C)NS(=O)(=O)c1ccc(F)c(C(=O)Nc2ccc(F)c(F)c2)c1 (stereo unspecified) , what is its reported EC50? 300

* * *

Provide the reported EC50 of each item.
# System: Hepatitis B virus
# test method notes: Antiviral activity against HBV infected in human HepAD38 cells assessed as reduction in viral DNA levels incubated for 6 days by PCR analysis
# Format: functional, organism-based
# condition set: HePAD38, 144 h

Given the compound `O=S(=O)(c1ccc2c(c1)c(Nc1ccc(F)cc1)nn2C1CCC1)N1CCC(O)CC1` , what is its reported EC50? 8000 nM

Given the compound `O=S(=O)(c1ccc2c(c1)c(Nc1ccccc1)nn2C1CC1)N1CCC(O)CC1` , what is its reported EC50? 740 nM

Given the compound `O=S(=O)(c1ccc2c(c1)c(Nc1ccc(F)cc1)nn2C1COC1)N1CCC(O)CC1` , what is its reported EC50? > 10000 nM

Given the compound `O=S(=O)(c1cc2c(Nc3ccc(F)c(F)c3)nn(C3CC3)c2cn1)N1CCOCC1` , what is its reported EC50? 220 nM

Given the compound `Cc1cc(Nc2nn(C3CC3)c3ccc(S(=O)(=O)N4CCOCC4)cc23)ccc1F` , what is its reported EC50? 57 nM

Given the compound `CCn1nc(Nc2ccc(F)cc2)c2cc(S(=O)(=O)N3CCC(O)CC3)ccc21` , what is its reported EC50? 1260 nM

Given the compound `CC(C)n1nc(Nc2ccc(F)cc2)c2cc(S(=O)(=O)N3CCC(O)CC3)ccc21` , what is its reported EC50? > 10000 nM

Given the compound `O=S(=O)(c1ccc2c(c1)c(Nc1ccc(F)cc1Cl)nn2C1CC1)N1CCC(O)CC1` , what is its reported EC50? 4000 nM

Given the compound `Cc1cc(Nc2nn(CC(F)F)c3ccc(S(=O)(=O)N4CCOCC4)cc23)ccc1F` , what is its reported EC50? 230 nM

* * *

# test method notes: Selectivity index, ratio of CC50 for cytotoxicity in human HepAD38 cells assessed as induction of cell killing to EC50 for antiviral activity against HBV infected in human HepAD38 cells assessed as reduction in viral DNA levels incubated for 6 days by PCR analysis
# Assay type: toxicity, cell-based
# condition set: read-out: Ratio CC50/EC50
measured property: selectivity ratio at 144 h

Given the compound `Cc1cc(Nc2nn(C3CC3)c3ccc(S(=O)(=O)N4CCC(O)CC4)cc23)ccc1F` , what is its reported selectivity ratio at 144 h? 343

Given the compound `O=S(=O)(c1ccc2[nH]nc(Nc3ccc(F)c(Cl)c3)c2c1)N1CCC(O)CC1` , what is its reported selectivity ratio at 144 h? 18.8

Given the compound `O=S(=O)(c1ccc2c(c1)c(Nc1ccc(F)cc1)nn2C1CC1)N1CCOCC1` , what is its reported selectivity ratio at 144 h? > 232

Given the compound `O=S(=O)(c1cc2c(Nc3ccc(F)c(C(F)F)c3)nn(C3CC3)c2cn1)N1CCC(O)CC1` , what is its reported selectivity ratio at 144 h? > 1410

Given the compound `CC[C@@H](C)NS(=O)(=O)c1ccc(F)c(C(=O)Nc2ccc(F)c(F)c2)c1` , what is its reported selectivity ratio at 144 h? 129

Given the compound `O=S(=O)(c1cc(F)c2c(c1)c(Nc1cc(F)c(F)c(F)c1)nn2C1CC1)N1CCC(O)CC1` , what is its reported selectivity ratio at 144 h? > 50

Given the compound `O=S(=O)(c1ccc2c(c1)c(Nc1ccc(F)c(Cl)c1)nn2C1CC1)N1CCC(O)CC1` , what is its reported selectivity ratio at 144 h? 96

Given the compound `O=S(=O)(c1cc2c(Nc3ccc(F)c(C(F)F)c3)nn(C3CC3)c2cn1)N1CCOCC1` , what is its reported selectivity ratio at 144 h? > 435

Given the compound `O=C1CCN(S(=O)(=O)c2ccc3c(c2)c(Nc2ccc(F)cc2)nn3C2CC2)CC1` , what is its reported selectivity ratio at 144 h? 43

* * *

# Test system: Hepatitis B virus
# test method notes: Antiviral activity against HBV infected in human HepAD38 cells assessed as reduction in viral DNA levels incubated for 6 days by PCR analysis
# Assay type: functional, organism-based
# condition set: HePAD38, 144 h
Provide the reported EC50 of each item.
Provide only the numeric value, understood in nM.

Given the compound O=S(=O)(c1ccc2c(c1)c(Nc1ccc(F)cc1)nn2C1CC1)N1CCCC(O)C1 (centres undefined) , what is its reported EC50? 250

Given the compound `Cc1cc(Nc2nn(CC(F)(F)F)c3ccc(S(=O)(=O)N4CCOCC4)cc23)ccc1F` , what is its reported EC50? 240

Given the compound `O=S(=O)(c1cc2c(Nc3ccc(F)c(F)c3)nn(C3CC3)c2cn1)N1CCC(O)CC1` , what is its reported EC50? 250

Given the compound `O=S(=O)(c1ccc2c(c1)c(Nc1ccc(F)cc1)nn2C1CC1)N1CCOCC1` , what is its reported EC50? 430

Given the compound `Cc1cc(Nc2nn(C3CC3)c3ccc(S(=O)(=O)N4C[C@@H]5C[C@H]4CO5)cc23)ccc1F` , what is its reported EC50? 45

Given the compound `CC[C@@H](C)NS(=O)(=O)c1ccc(F)c(C(=O)Nc2ccc(F)c(F)c2)c1` , what is its reported EC50? 310

Given the compound `Cc1cc(Nc2n[nH]c3ccc(S(=O)(=O)N4CCOCC4)cc23)ccc1F` , what is its reported EC50? 290

* * *

# test method notes: AUC in C57BL/6 mouse plasma at 100 mg/kg, po measured from 5 mins to 24 hrs by HPLC analysis
# Type: ADME, organism-based
# Set-up: time upper 24 hr, dose 100 mg/kg, time lower 0.083 hr, route oral
measured property: AUC (µg·h/mL)
Provide only the numeric value, understood in µg·h/mL.

Given the molecule `Cc1cc(Nc2nn(C3CC3)c3cnc(S(=O)(=O)N4CCC(O)CC4)cc23)ccc1F` , what is its reported AUC? 1.58

Given the molecule `Cc1cc(Nc2nn(C3CC3)c3cnc(S(=O)(=O)N4CCC(OC(=O)CN(C)C)CC4)cc23)ccc1F.O=C(O)CC(O)(CC(=O)O)C(=O)O` , what is its reported AUC? 7.01

* * *

# test method notes: Intrinsic clearance in mouse liver microsomes
# Type: ADME, Microsome
# condition set: read-out: CLH
measured property: microsomal CLint (µL/min/mg)
Provide only the numeric value, understood in µL/min/mg.

Given the molecule `Cc1cc(Nc2nn(C3CC3)c3ccc(S(=O)(=O)N4CCOCC4)cc23)ccc1F` , what is its reported microsomal CLint? 26.9

Given the molecule `O=S(=O)(c1cc2c(Nc3ccc(F)c(C(F)F)c3)nn(C3CC3)c2cn1)N1CCC(O)CC1` , what is its reported microsomal CLint? 6.9

Given the molecule `Cc1cc(Nc2nn(C3CC3)c3cnc(S(=O)(=O)N4CCC(O)CC4)cc23)ccc1F` , what is its reported microsomal CLint? 10.3

Given the molecule `Cc1cc(Nc2nn(C3CC3)c3cnc(S(=O)(=O)N4CCOCC4)cc23)ccc1F` , what is its reported microsomal CLint? 53.5

* * *

# test method notes: Clearance in C57BL/6 mouse at 20 mg/kg, iv measured from 5 mins to 24 hrs by HPLC analysis
# Format: ADME, organism-based
# condition set: in vivo
measured property: clearance (mL/min)
Provide only the numeric value, understood in mL/min.

Given the compound `Cc1cc(Nc2nn(C3CC3)c3cnc(S(=O)(=O)N4CCC(O)CC4)cc23)ccc1F` , what is its reported clearance? 2.33

* * *

# test method notes: Solubility in pH 6.8 phosphate buffer at 1 mg at 25 degC by HPLC analysis
# Format: physicochemical
# condition set: phosphate buffer, read-out: solubility
measured property: solubility (µg/mL)
Provide only the numeric value, understood in µg/mL.

Given the compound `Cc1cc(Nc2nn(C3CC3)c3cnc(S(=O)(=O)N4CCC(OC(=O)CN(C)C)CC4)cc23)ccc1F.Cl` , what is its reported solubility? 40

Given the compound `Cc1cc(Nc2nn(C3CC3)c3cnc(S(=O)(=O)N4CCC(OC(=O)CN(C)C)CC4)cc23)ccc1F.O=C(O)CC(O)(CC(=O)O)C(=O)O` , what is its reported solubility? 6650

Given the compound `CS(=O)(=O)O.CS(=O)(=O)O.Cc1cc(Nc2nn(C3CC3)c3cnc(S(=O)(=O)N4CCC(OC(=O)CN(C)C)CC4)cc23)ccc1F` , what is its reported solubility? 7690
